measurementDescription: Pharmacokinetic study of compounds in mice (brain exposure)
Format: in vivo, male C57BL/6 mice
studyConditions: male, C57BL/6, mouse, oral, 30 mg/kg, Protocol A, read-out: Cmax
measureName: Cmax (ng/g)
Numbers only, in ng/g.

Param item = "Cc1cc(C2CC3(C2)CN(C(=O)c2cc(O)ccc2F)C3)n(-c2ccccc2C)n1" ; retrieve measured Cmax. 102

---

testedTarget: Monoacylglycerol Lipase (MAGL) (Homo sapiens (Human), UniProt Q99685)
Sequence (Q99685 2-303): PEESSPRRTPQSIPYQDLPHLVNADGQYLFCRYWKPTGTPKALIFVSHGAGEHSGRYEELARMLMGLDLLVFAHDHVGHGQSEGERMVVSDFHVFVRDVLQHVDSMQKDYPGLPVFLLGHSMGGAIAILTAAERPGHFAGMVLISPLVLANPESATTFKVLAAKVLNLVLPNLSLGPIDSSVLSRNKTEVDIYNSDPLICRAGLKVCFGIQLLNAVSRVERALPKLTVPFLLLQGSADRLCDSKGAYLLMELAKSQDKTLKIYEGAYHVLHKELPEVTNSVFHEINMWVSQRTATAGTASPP
measurementDescription: MAGL inhibition potency (IC50) assay with 4NPA substrate
Type: biochemical
studyConditions: Method 6: Reaction Biology MAGL enzyme, 6 nM; read-out: MAGL Potency (Detection Method)
measureName: IC50

See these solved cases before continuing.
{"molecule": "COc1cc(F)ccc1C(=O)N1CC2(CC(n3nc(-c4cc(F)ccc4C)cc3C)C2)C1 [Compound 439]", "testedTarget": "Monoacylglycerol Lipase (MAGL) (Homo sapiens (Human), UniProt Q99685)", "measuredResult": "1000 to 5100 nM"}
{"molecule": "Cc1cnn(C2CC3(C2)CN(C(=O)c2cc(O)ccc2F)C3)c1-c1ccccc1C(F)(F)F (atropisomer, axis not shown; (M)) [Compound 410]", "testedTarget": "Monoacylglycerol Lipase (MAGL) (Homo sapiens (Human), UniProt Q99685)", "measuredResult": "50 to 150 nM"}
{"molecule": "Cc1cc(F)c(C(=O)N2CC3(CC(n4cc(C)c(-c5ccccc5C)n4)C3)C2)cc1O [Compound 443]", "testedTarget": "Monoacylglycerol Lipase (MAGL) (Homo sapiens (Human), UniProt Q99685)", "measuredResult": "1000 to 5100 nM"}

Find IC50 (Monoacylglycerol Lipase (MAGL) (Homo sapiens (Human), UniProt Q99685)) for the entry Cc1ccc(F)cc1-c1cc(C)n(C2CC3(C2)CN(C(=O)c2ccc(F)cc2OC(F)F)C3)n1 [Compound 455] 50 to 150 nM
